# target-or-system: Stromelysin-1 (Homo sapiens)
# Sequence (P08254 whole entry): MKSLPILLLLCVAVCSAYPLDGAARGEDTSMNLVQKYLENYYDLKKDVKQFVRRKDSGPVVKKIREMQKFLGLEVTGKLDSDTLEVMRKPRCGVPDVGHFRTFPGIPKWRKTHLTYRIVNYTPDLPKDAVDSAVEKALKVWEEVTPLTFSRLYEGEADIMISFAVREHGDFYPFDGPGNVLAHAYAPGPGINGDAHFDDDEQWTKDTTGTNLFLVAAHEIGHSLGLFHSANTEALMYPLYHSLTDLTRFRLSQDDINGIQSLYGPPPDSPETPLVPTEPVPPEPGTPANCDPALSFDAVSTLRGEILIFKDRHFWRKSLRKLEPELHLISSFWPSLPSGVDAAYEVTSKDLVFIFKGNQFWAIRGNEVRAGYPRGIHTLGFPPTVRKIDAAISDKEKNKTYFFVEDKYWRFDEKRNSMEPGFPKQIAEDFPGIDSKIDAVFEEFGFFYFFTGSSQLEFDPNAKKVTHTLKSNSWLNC
# assay-protocol: In vitro inhibitory activity against matrix metalloprotease-3
outcome-measure: pIC50
Kindly note that pIC50 refers to -log10 of the concentration in mol/L and answer with the value alone.

Request: pIC50, test system Stromelysin-1 (Homo sapiens), entry COc1ccc(-c2ccc(S(=O)(=O)NC(C(=O)O)C3CCNCC3)cc2)cc1 (stereo unspecified)
5.32

====

# target-or-system: Matrilysin (Homo sapiens)
# Sequence (P09237 whole entry): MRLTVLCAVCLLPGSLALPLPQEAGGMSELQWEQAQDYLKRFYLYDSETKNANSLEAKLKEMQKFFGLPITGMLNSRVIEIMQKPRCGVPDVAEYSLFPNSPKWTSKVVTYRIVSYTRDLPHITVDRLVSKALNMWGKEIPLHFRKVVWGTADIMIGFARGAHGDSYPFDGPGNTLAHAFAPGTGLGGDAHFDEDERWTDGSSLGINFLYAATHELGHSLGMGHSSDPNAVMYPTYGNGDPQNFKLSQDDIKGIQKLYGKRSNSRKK
# label = rule met if IC50 < 3000 nM else rule not met

Previously resolved entries follow.
- COCCOC(=O)N1CCC(C(C(=O)O)N(CCOC)S(=O)(=O)c2ccc(-c3ccc(OC)cc3)cc2)CC1 (stereo unspecified): rule met
- COCCOC(=O)N1CCC(C(NS(=O)(=O)c2ccc(-c3ccc(SC)cc3)cc2)C(=O)O)CC1 (stereo unspecified): rule met
- COc1ccc(-c2ccc(S(=O)(=O)N[C@H](C(=O)O)C3CCN(C(=O)OC(C)(C)C)CC3)cc2)cc1: rule not met
- COc1ccc(-c2ccc(S(=O)(=O)NC(CC#Cc3ccccc3)C(=O)O)cc2)cc1 (stereo unspecified): rule not met
- COc1ccc(-c2ccc(S(=O)(=O)NC(C(=O)O)C3CCN(C(=O)OC(C)C)CC3)cc2)cc1 (stereo unspecified): rule met

Could you now look at the following compound, please?
Criterion: IC50 strictly below 3000 nM. Is it met by COCCOC(=O)N1CCC(C(C(=O)O)N(C)S(=O)(=O)c2ccc(-c3ccc(OC)cc3)cc2)CC1 (stereo unspecified) ?
rule not met
